Values compiled from ChEMBL document CHEMBL4011621.

# test_description: Selectivity index, ratio of CC50 for human H1HeLa cells to EC50 for Human rhinovirus A21 infected in human H1HeLa cells
# Assay type: toxicity, cell-based
# run_conditions: read-out: Ratio CC50/EC50
measured_quantity: selectivity ratio

Some molecules with recorded selectivity ratio:
[
  {
    "structure_as_smiles": "CCOC(=O)c1ccc2ccc(Oc3ccnc(C(=O)NC)c3)cc2n1",
    "measured_quantity": "selectivity ratio",
    "assay_result": "> 2.3"
  },
  {
    "structure_as_smiles": "CCOC(=O)c1sc2cc(Oc3ccnc(C(=O)NC)c3)ccc2c1C#N",
    "measured_quantity": "selectivity ratio",
    "assay_result": "> 4.8"
  },
  {
    "structure_as_smiles": "CCOC(=O)c1cc2ccc(Oc3ccnc(C(=O)NC)c3)cc2s1",
    "measured_quantity": "selectivity ratio",
    "assay_result": "> 77"
  },
  {
    "structure_as_smiles": "CNC(=O)c1cc(Oc2ccc3cc(C(=O)OC)sc3c2)ccn1",
    "measured_quantity": "selectivity ratio",
    "assay_result": "> 1.3"
  }
]

Now consider a different molecule.
Enquiry: // selectivity ratio lookup, key: `CCOC(=O)c1cc2ccc(Oc3ccccc3)cc2s1`
Return: > 2
